Sequence of the target: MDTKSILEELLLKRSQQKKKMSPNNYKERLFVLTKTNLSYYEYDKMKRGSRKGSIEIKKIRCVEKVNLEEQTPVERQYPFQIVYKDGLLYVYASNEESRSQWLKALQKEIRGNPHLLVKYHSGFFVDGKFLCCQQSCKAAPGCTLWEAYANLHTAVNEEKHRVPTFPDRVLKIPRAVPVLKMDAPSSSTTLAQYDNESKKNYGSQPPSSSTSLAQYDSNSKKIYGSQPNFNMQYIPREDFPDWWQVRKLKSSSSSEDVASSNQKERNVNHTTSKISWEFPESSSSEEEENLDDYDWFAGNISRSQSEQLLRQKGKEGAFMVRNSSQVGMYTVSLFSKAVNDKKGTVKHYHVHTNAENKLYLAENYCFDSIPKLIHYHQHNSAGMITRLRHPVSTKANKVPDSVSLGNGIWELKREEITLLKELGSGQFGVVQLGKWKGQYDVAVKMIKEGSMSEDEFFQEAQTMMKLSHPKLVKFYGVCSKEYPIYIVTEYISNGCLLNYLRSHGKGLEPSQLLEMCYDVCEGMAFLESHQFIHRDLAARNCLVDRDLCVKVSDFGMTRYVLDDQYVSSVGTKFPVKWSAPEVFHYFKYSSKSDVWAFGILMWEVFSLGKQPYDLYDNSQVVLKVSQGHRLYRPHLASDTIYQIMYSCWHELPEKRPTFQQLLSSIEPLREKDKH
quantity measured: IC50 (nM)

Sample records with IC50:
[[record]]
mol_smiles = "CC(=O)N[C@@H]1CCN(c2n[nH]c3nccc(-c4ccc([C@@H](C)NC(=O)c5cc(C(C)(C)O)on5)cc4)c23)C1"
assay_result = 5500

[[record]]
mol_smiles = "Cc1c(NC(=O)c2noc(C(C)(C)C)n2)cccc1-c1ccnc2[nH]nc(N[C@@H]3CCNC3)c12"
assay_result = 5040

[[record]]
mol_smiles = "C=CC(=O)N1CC[C@@H](Nc2n[nH]c3nccc(-c4ccc(CNC(=O)c5cnc(N(C)C)o5)c(F)c4)c23)C1"
assay_result = 43


1. C=CC(=O)N1CC[C@@H](Nc2n[nH]c3nccc(-c4ccc(CNC(=O)c5nc(C(C)(C)C)n[nH]5)c(F)c4)c23)C1
2. CN(C)C/C=C/C(=O)N1CC[C@@H](Nc2n[nH]c3nccc(-c4ccc(CNC(=O)c5noc(C(C)(C)C)n5)c(F)c4)c23)C1
Input: Please state the entry with greater IC50 among 1 and 2 . Give the label under which the chosen entry appears.
Output: 2
(2: 794 nM, 1: 113 nM)

A. C[C@@H](NC(=O)c1cc(C(C)(C)O)on1)c1ccc(-c2ccnc3[nH]nc(NC4CCOCC4)c23)cc1
B. C=CC(=O)N[C@H]1CC[C@@H](Nc2n[nH]c3nccc(-c4ccc(CNC(=O)c5noc(C(C)(C)C)n5)c(F)c4)c23)C1
Input: Which of these two has the smaller recorded IC50: A or B ? Give the label under which the chosen entry appears.
Output: B
(B: 86.7 nM, A: 5200 nM)

###

pIC50 by entry:
tgt: Btk (Homo sapiens, UniProt Q06187)
Construct: purified from insect cells as a full-length construct containing a N-terminal 6X-His tag; His6 (N); made in house; host or cells: insect cells (Method C)
Sequence (Q06187 whole entry): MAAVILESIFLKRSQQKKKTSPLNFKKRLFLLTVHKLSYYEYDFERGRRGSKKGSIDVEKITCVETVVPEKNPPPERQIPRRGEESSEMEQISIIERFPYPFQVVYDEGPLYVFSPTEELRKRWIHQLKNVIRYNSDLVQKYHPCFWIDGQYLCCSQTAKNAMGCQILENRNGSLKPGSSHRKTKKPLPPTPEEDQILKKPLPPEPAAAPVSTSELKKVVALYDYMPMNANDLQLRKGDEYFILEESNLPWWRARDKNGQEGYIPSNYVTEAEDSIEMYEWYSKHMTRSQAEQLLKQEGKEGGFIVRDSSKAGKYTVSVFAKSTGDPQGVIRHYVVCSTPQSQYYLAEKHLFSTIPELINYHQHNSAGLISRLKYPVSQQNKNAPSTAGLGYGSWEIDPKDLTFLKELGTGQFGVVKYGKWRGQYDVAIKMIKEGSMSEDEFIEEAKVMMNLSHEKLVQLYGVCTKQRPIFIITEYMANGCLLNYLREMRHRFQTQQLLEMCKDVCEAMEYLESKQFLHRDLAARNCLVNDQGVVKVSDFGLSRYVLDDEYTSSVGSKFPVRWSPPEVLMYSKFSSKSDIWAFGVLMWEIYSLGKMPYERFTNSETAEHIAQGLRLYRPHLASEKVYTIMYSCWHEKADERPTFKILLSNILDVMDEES
method summary: Btk in vitro inhibitory activity (one of Method A TR-FRET, Method B electrophoretic mobility shift, Method C radiometric filter binding)
Type: biochemical
settings: wild-type Btk; read-out: Btk-WT IC50
pIC50: −log10 of the molar value.

[[record]]
mol_smiles = "C=CC(=O)N1CCC[C@@H](Nc2n[nH]c3nccc(-c4ccc(CNC(=O)c5noc(C(C)(C)C)n5)c(F)c4)c23)C1"
assay_result = 9.72

[[record]]
mol_smiles = "C[C@H](NC(=O)c1ccc(C(C)(C)C)cc1)c1ccc(-c2ccnc3[nH]nc(N[C@@H]4CCNC4)c23)cc1"
assay_result = "< 5.00"


Now, please, on to the next compound.
Input: Answer with reported pIC50 of C[C@@H](NC(=O)c1cc(C(C)(C)O)on1)c1ccc(-c2ccnc3[nH]nc(NC4CCN(S(C)(=O)=O)CC4)c23)cc1
Output: < 6.00
